Listed here: items and their measured % Parent (percent positive cells).
assay-system: T1, human BCMA expressed on cells (human, UniProt Q02223 1-184)
T1 construct: the cell line is named under assay; also called wildtype human BCMA
T1 sequence: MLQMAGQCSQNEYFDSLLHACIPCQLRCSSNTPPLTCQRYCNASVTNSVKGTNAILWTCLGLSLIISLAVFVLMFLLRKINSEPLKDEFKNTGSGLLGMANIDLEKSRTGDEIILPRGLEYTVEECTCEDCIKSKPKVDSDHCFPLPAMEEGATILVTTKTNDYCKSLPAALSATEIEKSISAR
procedure-summary: flow cytometry, hybridoma supernatant, HEK293T cells stably expressing human BCMA
Could you give me the number in %? Just the number is fine.

Sample records with % Parent (percent positive cells):
binder: 552-LN1-E9 (antibody produced by the hybridoma) (antibody, V domains shown, Mouse antibody from B cell hybridoma (culture supernatant or IgG purified from it)) VH: QIQLVQSGPELKKPGETVKISCKASGYTFTDYSIYWVKQAPGKGLKWMGWINTETGEPTYADDFKGRFAFSLETSASSAYLQINTLKNEDTATYFCSISYYYAMDYWGQGTSVTVSS VL: DIVLTQSPASLAVSLGQRATISCRASKSVSTSGYSFLHWYQQKPGQPPKLLIYFASNLESGVPARFSGSGSGTDFTLNIHPVEEEDAATYYCQHSRELPRTFGGGTKLEIK
% Parent (percent positive cells) [%]: 75.4

binder: 552-LN2-F8 (antibody produced by the hybridoma) (antibody, V domains shown, Mouse antibody from B cell hybridoma (culture supernatant or IgG purified from it)) VH: QIQLVQSGPELKKPGETVKISCKASGYTFTDYTMYWVKQAPGKGLKWMGWINTETGEPTYADDFKGRFVFSLETSANTAYLQINNLKNEDTATYFCAISYYYGMDYWGQGTSVTVTS VL: DIILTQSPASLAVSLGQRATITCRASKSVSTSGYNFVYWYQQKPGQPPKLLIYLASNLESGVPARFSGSGSGTDFTLNIHPVEEEDAATYYCQHSRELPRTFGGGTKLEIK
% Parent (percent positive cells) [%]: 73.8

Ask: Any idea what its % Parent (percent positive cells) is? The binder is 538-SP5-B10 (antibody produced by the hybridoma) (antibody, V domains shown, Mouse antibody from B cell hybridoma (culture supernatant or IgG purified from it)) VH: EVQLQQSGPELVKPGASVKMSCKASGYTFTSYVMHWVKQKPGRGLEWIAYILPFNDVTKYNEKFKGKATLTSDKSSNTAYMELSSLTSEDSAVYYCARWEWDDGYFDYWGQGTTLTVSS VL: DAVMTQTPLSLPVSLGDQASISCRSSQSLENSNGNTYLNWYLQKPGQSPQLLIYRVSNRFSGVLDRFSGSGSGTDFTLKISRVEAEDLGVYFCLQVSHVPFTFGAGTKLELK
Result: 70.8

Ask: What does the record list as % Parent (percent positive cells) for 539-SP2-H3 (antibody produced by the hybridoma) (antibody, V domains shown, Mouse antibody from B cell hybridoma (culture supernatant or IgG purified from it)) VH: EVQLQQSGPELVKPGASVKMSCKASGYTFTSYVIHWVKQKPGQGLEWIGYVLPYNDVIKYNEKFKGKATLTSDKSSSTAYMDLSSLTSEDSAVYYCARWGDFDEGIWFPYWGQGTLVTVSA VL: DVLMTQTPLSLPVSLGDHASVSCRSSQSIVHTDGNTYLEWYLQKPGQSPKLLIYKVSNRFSGVPDRFSGSGSGTDFTLKISRVEAEDLGVYYCFQGSHVPWTFGGGTKLEIK ?
Result: 74.3

Ask: Query: % Parent (percent positive cells); subject: 539-SP7-F4 (antibody produced by the hybridoma) (antibody, V domains shown, Mouse antibody from B cell hybridoma (culture supernatant or IgG purified from it)) VH: EVQLQQSGPELVKPGASMKISCKASGYSFTGYIMNWVKQSHGKNLEWIGLINPYNGDSIYNQKFKGKATLTVDKSSSTAYMELFSLTSEDSTVYYCAAGEEFAYWGQGTLVTVSA VL: DIQMTQTSSSLSASLGDRVTISCRASQDISIYLNWFQQKPDGTVKLLIYFTSRLHPGVPSRFSASGSGTDYSLTISHLEHEDIATYFCQQGNTLPRTFGGGTKVELK
Result: 63.8

Ask: Requested read-out: % Parent (percent positive cells). Entry: 539-SP1-C8 (antibody produced by the hybridoma) (antibody, V domains shown, Mouse antibody from B cell hybridoma (culture supernatant or IgG purified from it)) VH: EVQLQQSGPELVKPGSSVKMSCKASGYTFTNYVMHWVKQKPGQGLEWIGYILPYNDGTKYNEKFKGKATLTSDKSSSTAYMEFSVLTSEDSAVYYCARYDYEGSFDYWGQGTALTVSS VL: DIQMTQTTSSLSASLGDRVTISCRASQDISNYLNWYQQKPDGTVKLLMCYTSRLHSGVPSRFSGSGSGTDFSLTISNLEQEDIATYFCQQGNTFPPTFGGGTKLEIK
Result: 56.5
